- TESTED_TARGET: glycine receptor binding site of gephyrin (peptide binding site) (Homo sapiens, UniProt Q9NQX3)
- Sequence (Q9NQX3 1-736): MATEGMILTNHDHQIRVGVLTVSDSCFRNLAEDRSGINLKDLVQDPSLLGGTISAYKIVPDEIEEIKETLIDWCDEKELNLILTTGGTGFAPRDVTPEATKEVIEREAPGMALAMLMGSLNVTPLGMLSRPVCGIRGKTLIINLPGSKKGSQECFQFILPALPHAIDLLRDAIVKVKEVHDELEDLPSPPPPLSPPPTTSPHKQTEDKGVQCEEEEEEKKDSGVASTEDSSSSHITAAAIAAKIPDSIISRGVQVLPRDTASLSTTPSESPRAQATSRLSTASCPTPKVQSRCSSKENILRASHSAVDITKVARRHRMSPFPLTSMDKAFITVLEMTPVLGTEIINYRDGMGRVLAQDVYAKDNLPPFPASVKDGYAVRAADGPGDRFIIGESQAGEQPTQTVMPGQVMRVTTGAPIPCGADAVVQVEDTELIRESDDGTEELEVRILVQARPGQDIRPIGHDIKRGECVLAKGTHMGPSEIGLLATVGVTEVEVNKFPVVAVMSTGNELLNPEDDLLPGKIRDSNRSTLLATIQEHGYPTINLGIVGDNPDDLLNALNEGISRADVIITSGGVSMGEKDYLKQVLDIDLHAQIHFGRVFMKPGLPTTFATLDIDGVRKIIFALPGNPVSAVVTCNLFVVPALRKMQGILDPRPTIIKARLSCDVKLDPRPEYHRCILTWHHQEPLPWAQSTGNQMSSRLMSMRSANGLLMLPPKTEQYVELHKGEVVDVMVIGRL
- ASSAY_PROTOCOL: Affinity of β-bodies to the gephyrin peptide binding site
- COND: compared with original peptide SEQ ID NO: 41
Bridge positions count the residues as written; N and C are the ends. Square brackets hold non-standard residues; d marks the D form. Ends that are not written are not given here. Aha = [N-]=[N+]=NCC[C@H](N)C(=O)O; Pra = C#CC[C@H](N)C(=O)O
READOUT_LABEL: affinity to the glycine receptor binding site of gephyrin

[Q] Report affinity to the glycine receptor binding site of gephyrin for TTVTGTLYPGTLLGAATT (Designed peptide) [SEQ ID NO: 43]
[A] improved

[Q] Report affinity to the glycine receptor binding site of gephyrin for Abu(N3)-TVTGTLYPGTLLGFET-Pra ([Aha]TVTGTLYPGTLLGFET[Pra]; triazole 1-18 (inferred)) [SEQ ID NO: 44]
[A] unchanged

[Q] Report affinity to the glycine receptor binding site of gephyrin for CTVTGTLYPGTLLGFETC (Designed peptide) [SEQ ID NO: 42]
[A] improved

[Q] Report affinity to the glycine receptor binding site of gephyrin for Pra-TVTGTLYPGTLLGFET-Abu(N3) ([Pra]TVTGTLYPGTLLGFET[Aha]; triazole 1-18 (inferred)) [SEQ ID NO: 34]
[A] unchanged
